These entries and their values trace back to ChEMBL document CHEMBL4052701.

- Tested on: P388
- testMethodNotes: Cytotoxicity against mouse P388 cells incubated for 72 hrs by alamar blue assay
- Type: functional, cell-based
- measurementParameters: P388, 72 h
Reported values of IC50 for individual entries
Reply with just the number (in µM).

Previously resolved entries follow.
compound | endpointUnit | IC50
O=c1[nH]cc(F)c(=O)[nH]1 [FLUOROURACIL] | µM | 5.8
C[C@H]1[C@H]2[C@H](C[C@H]3[C@@H]4CCC5=CC(=O)C=C[C@]5(C)[C@H]4CC[C@]23C)O[C@]2(OC(=O)[C@H](C)[C@H]2C)[C@H]1O | µM | 39.8

IC50 for P388 with input `C[C@H]1[C@H]2[C@H](C[C@H]3[C@@H]4CCC5=CC(=O)C=C[C@]5(C)[C@H]4CC[C@]23C)O[C@@]2(OC(=O)[C@@H](C)[C@H]2C)[C@H]1O` equals 18.3

---

- Test system: P388
- testMethodNotes: Cytotoxicity against mouse P388 cells incubated for 72 hrs by alamar blue assay
- Assay type: functional, cell-based
- measurementParameters: P388, 72 h
observable: IC50 (µM)
Reply with just the number (in µM).

smilesRecord | recordedResult
C[C@@H]1[C@H]([C@H]2OC(=O)[C@@H](C)[C@H]2C)O[C@H]2C[C@H]3[C@@H]4CCC5=CC(=O)C=C[C@]5(C)[C@H]4CC[C@]3(C)[C@@H]12 | 29.9

IC50 reported for this molecule `C[C@H]1[C@H]([C@@]2(O)O[C@H]3C[C@H]4[C@@H]5CCC6=CC(=O)C=C[C@]6(C)[C@H]5CC[C@]4(C)[C@H]3[C@@H]2C)OC(=O)[C@@H]1C` : 18.7
